B1: 6NMW (parent)
chain: QGDIVVALYPYDGIHPDDLSFKKGEKMKVLEEHGEWWKAKSLLTKKEGFIPSNYVAKLN

Variants of: B1
Assay: folding stability dG (cDNA display proteolysis); higher = more stable
Settings: PBS, room temperature
Items are presented alongside their recorded folding stability dG.
Write the number in kcal/mol without appending the unit.

Problem: Please report the measured folding stability dG for K46N
Solution: 3.02

Problem: Could you please provide reported folding stability dG for S52H ? Thanks!
Solution: 2.96

Problem: Supply folding stability dG value. Item: K28E
Solution: 4.07

Problem: Retrieve folding stability dG measured for E31M and print it.
Solution: 3.05

Problem: Look up and report measured folding stability dG for this entry: D17K
Solution: 3.5

Problem: Give the measured folding stability dG for M27V
Solution: 0.125

Problem: // Input: G24A . Output its folding stability dG only.
Solution: 1.25

Problem: Respond only with folding stability dG recorded for P10A
Solution: 4.23

Problem: Give folding stability dG for K40R
Solution: 4.32

Problem: Determine its reported folding stability dG: W36S
Solution: 2.15

Problem: Return reported folding stability dG. Input variant: I14L
Solution: 3.51
